Measured pKd of individual entries
target: T1, recombinant human Claudin 18.2 protein (GenScript, Z03504) (human, UniProt P56856-2 1-261, limits assumed); experiment: SPR Biacore 8K, antibody captured via Fc, human Claudin 18.2 protein as analyte
T1 construct: Bought recombinant protein
Scale note: pKd = -log10(concentration in M).

In the examples that follow, each entry is paired with its recorded pKd.
| BINDER | REPORTED_RESULT |
| --- | --- |
| AHP30826 (antibody, V domains shown) VH: QVQLQQSGGGSVQAGGSLRLSCAASGTILSINAMGWYRQAPGKQRELVATITTGGNANYAHSVKGRFTISRDNAKNTVYLQMNNLKPEDTAVYYCNAEQVVVGFLQAYDVWGQGTTVTVSS VL: DVVMTQSPLSLPVTLGQAASISCRSSQSLVHGDGNTYLNWIQQRPGQSPRRLIYKVSNRDSGVPDRFSGSGSGTDFTLKISRVEAEDVGVYYCMQGTHWPSTFGPGTKVDIK | 8.11 |
| AHP32913 (antibody, V domains shown) VH: QVQLMQSGGGLVQPGGSLRLSCAASRNIGILSTMGWYRQAPGKQRELVATITRGGSTNYGEFVKGRFTISRDNAKNTVYLQMNSLKPEDTAVYYCNVDESWLGTQSYWGRGTQVTVSS VL: QAVVTQEPSLTVSPGGTVTLTCGSSTGPVTSGHYPHWYQQKPGQAPKTLIFDTSHKHPWTPAQFSGSLLGGKAALTLSGAHPEDEAEYYCLLSYSGVRVFGGGTQLIIL | 8.03 |

Please give measured pKd of the following entry: AHP32919 (antibody, V domains shown) VH: QVQLQESGGGVVQPGGSLRLSCAASQSIGLLSTMGWYRQAAGKQRELVATITRGGSTNYGEFVKGRFTISRDNAKNTVYLQMNSLKPEDTAVYYCTADESWLGTQSYWGRGTRVTVSS VL: QAGLTQPPSASGTPGQGVTISCSGSSSNIGSNSVNWYQQLPGTAPKLLMHSNNERSSGVPDRFSGSKSGSSASLAISGLQSEDAADYFCGAWDDSLNGYVFGTGTKLTVL 8.10

Please give measured pKd of the following entry: AHP31548 (antibody, V domains shown) VH: QVQLMQSGGGLVQPGGSLRLSCAASRNIGILSTMGWYRQAPGKQRELVATITRGGSTNYGEFVKGRFTISRDNAKNTVYLQMNSLKPEDTAVYYCNVDESWLGTQSYWGRGTTVTVSS VL: QSALTQPPSASGSPGQSVTISCTGTSSDIGTYNFVSWYQQHPGKAPKLIIYEVSKRPSGVPDRFSGSKSGNTASLTVSGLQAEDEADYYCKSYPRVFGTGTKLTAL 8.14
